Data origin: patent US20170240628A1

# measured.target: T1, recombinant human midkine (huMK) (human, UniProt P21741 21-143)
# T1 construct: also called human MK; Human MK
# T1 sequence (looked up): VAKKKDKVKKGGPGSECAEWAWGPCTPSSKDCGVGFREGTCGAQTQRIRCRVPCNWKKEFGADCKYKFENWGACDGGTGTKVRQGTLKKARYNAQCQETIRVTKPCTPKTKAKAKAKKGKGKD
# procedure.summary: ELISA by the methods of Example 2 (printed as KD)
readout: pKd
Please express pKd as -log10 of the molar concentration.

Need pKd, item murine IP14 precursor antibody (antibody, V domains shown, Murine monoclonal antibody; also called mIP14; mAb IP14) VH: QVQLQQPGAELVRPGHSVKLSCKASGQSFSSYWMNWVRQRPGQGLEWIGMIHPSDSETILNQKFKDKATLTVDISSNTAYMQLSSPTSEDSAVYFCSSWSAKRGDFWGQGTTLTVSS VL: DIVLTQSPATLSVTPGDSVNLSCRASESISNNLHWYQQKSHESPRLLIKYASQSISGIPSRFSGSGSGTDFNLSVNSVETEDFGMYFCQQSNSWPLTFGAGTKLELKR
9.84

Need pKd, item mouse-human chimeric IP14 antibody (antibody, V domains shown, also called chimeric antibody; Hv0 Lv0) VH: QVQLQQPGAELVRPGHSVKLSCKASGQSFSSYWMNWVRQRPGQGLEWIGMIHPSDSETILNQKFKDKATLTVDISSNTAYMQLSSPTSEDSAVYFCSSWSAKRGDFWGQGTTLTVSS VL: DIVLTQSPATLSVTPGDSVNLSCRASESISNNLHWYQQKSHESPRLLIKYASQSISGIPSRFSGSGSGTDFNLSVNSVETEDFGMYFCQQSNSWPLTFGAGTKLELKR
9.98
